# TARGET_OR_SYSTEM: human TIM3, full length, on cells (human, UniProt Q8TDQ0 22-301)
# TEST_DESCRIPTION: cell-based or functional assay
QUANTITY_KIND: IFNgamma release in MLR, % of rec hu IL-2 control, 40 µg/ml (%)

INSERT INTO measurements (binder, result) VALUES
  ('anti-TIM3 antibody Tim3_0026 (antibody, V domains shown, Mouse monoclonal from hybridoma) VH: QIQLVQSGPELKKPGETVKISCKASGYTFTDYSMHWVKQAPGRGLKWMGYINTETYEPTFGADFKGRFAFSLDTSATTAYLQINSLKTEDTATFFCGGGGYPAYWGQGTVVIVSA VL: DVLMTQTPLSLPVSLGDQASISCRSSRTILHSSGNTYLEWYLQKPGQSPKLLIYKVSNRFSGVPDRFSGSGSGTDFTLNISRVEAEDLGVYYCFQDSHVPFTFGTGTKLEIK', 25),
  ('anti-TIM3 antibody Tim3_0021 (antibody, V domains shown, Mouse monoclonal from hybridoma) VH: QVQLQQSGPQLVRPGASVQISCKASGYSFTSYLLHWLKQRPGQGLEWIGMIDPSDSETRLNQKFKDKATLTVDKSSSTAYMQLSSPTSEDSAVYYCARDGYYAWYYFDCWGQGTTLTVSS VL: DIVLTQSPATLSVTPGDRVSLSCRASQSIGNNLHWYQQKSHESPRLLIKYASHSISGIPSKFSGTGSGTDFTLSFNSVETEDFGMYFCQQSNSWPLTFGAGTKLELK', 112),
  ('anti-TIM3 antibody Tim3_0033 (antibody, V domains shown, Mouse monoclonal from hybridoma) VH: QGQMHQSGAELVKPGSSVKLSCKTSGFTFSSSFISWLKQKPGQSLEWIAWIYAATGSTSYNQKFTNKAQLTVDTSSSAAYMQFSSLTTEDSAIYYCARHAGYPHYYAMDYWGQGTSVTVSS VL: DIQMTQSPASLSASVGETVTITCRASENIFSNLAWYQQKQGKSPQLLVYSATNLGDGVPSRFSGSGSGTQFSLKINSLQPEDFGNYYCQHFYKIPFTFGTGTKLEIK', 35);
